Test: Oral absorption in Swiss mice
Assay type: in vivo
Conditions: male, mouse, plasma, po, 10 mg/kg p.o.
In plain terms, low half-life, meaning strictly below 3 h, gives 1, and everything else gives -1.

>  <Compound>
Cc1ccc(OC[C@@H]2CN(S(=O)(=O)c3c(C(N)=O)[nH]c4ccc(Cl)cc34)CCO2)cc1-c1ccccc1 [Compound 20]

>  <Class assignment>
1

$$$$
>  <Compound>
NC(=O)c1[nH]c2ccc(Cl)cc2c1S(=O)(=O)N1CCO[C@H](COc2cccc(-c3cccnc3F)c2)C1 [Compound 3]

>  <Class assignment>
-1

$$$$
>  <Compound>
NC(=O)c1[nH]c2ccc(Cl)cc2c1S(=O)(=O)N1CCO[C@H](COc2ccc(-c3ccncc3)cc2)C1 [Compound 32]

>  <Class assignment>
1

$$$$
>  <Compound>
Cc1cc(-c2ccc(OC[C@@H]3CN(S(=O)(=O)c4c(C(N)=O)[nH]c5ccc(Cl)cc45)CCO3)cc2)ccn1 [Compound 51]

>  <Class assignment>
1

$$$$
>  <Compound>
NC(=O)c1[nH]c2ccc(Cl)cc2c1S(=O)(=O)N1CCO[C@H](COc2cccc(-c3ccccc3)c2)C1 [Compound 1]

>  <Class assignment>
-1

$$$$
>  <Compound>
COc1ccc(-c2cccc(OC[C@@H]3CN(S(=O)(=O)c4c(C(N)=O)[nH]c5ccc(Cl)cc45)CCO3)c2)cn1 [Compound 7]

>  <Class assignment>
1

$$$$
>  <Compound>
NC(=O)c1[nH]c2ccc(I)cc2c1S(=O)(=O)N1CCO[C@H](COc2ccccc2)C1 [Compound 999, reference compound]

>  <Class assignment>
1

$$$$
>  <Compound>
NC(=O)c1[nH]c2ccc(Cl)cc2c1S(=O)(=O)N1CCO[C@H](COc2ccc(-c3ccnc(Cl)c3)cc2)C1 [Compound 84]

>  <Class assignment>
1

$$$$

###

The following compounds are shown together with reported log10(IC50) values.
Target: intracellular kinase domain of human IGF-1R (GST fusion protein) (Homo sapiens, UniProt P08069)
Construct: IGFRK and IRK enzyme used for the assay was intracellular kinase domain of human IGF-1R; GST
Sequence (P08069 999-1274 limits assumed): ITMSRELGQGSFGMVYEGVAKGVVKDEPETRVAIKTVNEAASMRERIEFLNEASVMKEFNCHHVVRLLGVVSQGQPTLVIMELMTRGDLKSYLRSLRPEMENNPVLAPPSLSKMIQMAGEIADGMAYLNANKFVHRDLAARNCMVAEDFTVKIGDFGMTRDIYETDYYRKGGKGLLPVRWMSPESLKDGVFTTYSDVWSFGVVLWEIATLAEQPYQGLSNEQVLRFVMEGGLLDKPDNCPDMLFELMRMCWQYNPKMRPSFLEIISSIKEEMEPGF
Assay: In vitro IGF-1R kinase assay (HTRF)
Settings: ATP 20 μM, IGFRK 0.25 nM
Endpoint name: log10(IC50) (log10 of the value in nM)

>  <Structure string>
COc1ccc(-c2ccc(OC[C@@H]3CN(S(=O)(=O)c4c(C(N)=O)[nH]c5ccc(Cl)cc45)CCO3)cc2)cn1

>  <Measured value>
2.22

$$$$
>  <Structure string>
Cc1ncccc1-c1ccc(OC[C@@H]2CN(S(=O)(=O)c3c(C(N)=O)[nH]c4ccc(Cl)cc34)CCO2)cc1

>  <Measured value>
0.51

$$$$
>  <Structure string>
Cc1ccccc1-c1ccc(OC[C@@H]2CN(S(=O)(=O)c3c(C(N)=O)[nH]c4ccc(Cl)cc34)CCO2)cc1

>  <Measured value>
2.26

$$$$
>  <Structure string>
Cc1ccccc1-c1cc(OC[C@@H]2CN(S(=O)(=O)c3c(C(N)=O)[nH]c4ccc(Cl)cc34)CCO2)ccc1C

>  <Measured value>
2.47

$$$$
>  <Structure string>
NC(=O)c1[nH]c2ccc(Cl)cc2c1S(=O)(=O)N1CCO[C@H](COc2ccc(-c3cccnc3F)cc2)C1

>  <Measured value>
0.70

$$$$
>  <Structure string>
CN(C)c1ccc(-c2cccc(OC[C@@H]3CN(S(=O)(=O)c4c(C(N)=O)[nH]c5ccc(Cl)cc45)CCO3)c2)cn1

>  <Measured value>
1.48

$$$$
>  <Structure string>
Cc1cc(-c2ccc(OC[C@@H]3CN(S(=O)(=O)c4c(C(N)=O)[nH]c5ccc(Cl)cc45)CCO3)cc2)ccn1

>  <Measured value>
0.63

$$$$
>  <Structure string>
NC(=O)c1[nH]c2ccc(Cl)cc2c1S(=O)(=O)N1CCO[C@H](COc2ccc(-c3ccncc3)cc2)C1

>  <Measured value>
0.54

$$$$
>  <Structure string>
NC(=O)c1[nH]c2ccc(Cl)cc2c1S(=O)(=O)N1CCO[C@H](COc2ccc(-c3ccccc3OC(F)(F)F)cc2)C1

>  <Measured value>
2.56

$$$$
>  <Structure string>
COc1cc(-c2ccc(OC[C@@H]3CN(S(=O)(=O)c4c(C(N)=O)[nH]c5ccc(Cl)cc45)CCO3)cc2C)ccn1

>  <Measured value>
1.88

$$$$
>  <Structure string>
COc1ccc(-c2cccc(OC[C@@H]3CN(S(=O)(=O)c4c(C(N)=O)[nH]c5ccc(Cl)cc45)CCO3)c2)cn1

>  <Measured value>
1.18

$$$$
>  <Structure string>
Cc1cc(OC[C@@H]2CN(S(=O)(=O)c3c(C(N)=O)[nH]c4ccc(Cl)cc34)CCO2)ccc1-c1ccncc1

>  <Measured value>
0.63

$$$$
>  <Structure string>
Cc1cc(OC[C@@H]2CN(S(=O)(=O)c3c(C(N)=O)[nH]c4ccc(Cl)cc34)CCO2)ccc1-c1ccnc(F)c1

>  <Measured value>
1.12

$$$$
>  <Structure string>
Cc1cc(OC[C@@H]2CN(S(=O)(=O)c3c(C(N)=O)[nH]c4ccc(Cl)cc34)CCO2)ccc1-c1ccc(F)nc1

>  <Measured value>
1.48

$$$$
>  <Structure string>
NC(=O)c1[nH]c2ccc(Cl)cc2c1S(=O)(=O)N1CCO[C@H](COc2cccc(-c3ccccn3)c2)C1

>  <Measured value>
0.57

$$$$
>  <Structure string>
NC(=O)c1[nH]c2ccc(Cl)cc2c1S(=O)(=O)N1CCO[C@H](COc2ccc(-c3ccccc3)cc2)C1

>  <Measured value>
1.48

$$$$
>  <Structure string>
NC(=O)c1[nH]c2ccc(Cl)cc2c1S(=O)(=O)N1CCO[C@H](COc2cccc(-c3ccc(F)nc3)c2)C1

>  <Measured value>
1.19

$$$$
>  <Structure string>
COc1ncccc1-c1ccc(OC[C@@H]2CN(S(=O)(=O)c3c(C(N)=O)[nH]c4ccc(Cl)cc34)CCO2)cc1

>  <Measured value>
1.67

$$$$
>  <Structure string>
NC(=O)c1[nH]c2ccc(Cl)cc2c1S(=O)(=O)N1CCO[C@H](COc2ccc(-c3cncnc3)cc2)C1

>  <Measured value>
0.60

$$$$
>  <Structure string>
COc1ccc(-c2cc(OC[C@@H]3CN(S(=O)(=O)c4c(C(N)=O)[nH]c5ccc(Cl)cc45)CCO3)ccc2F)cn1

>  <Measured value>
1.64

$$$$

###

Target: intracellular kinase domain of human IGF-1R (GST fusion protein) (Homo sapiens, UniProt P08069)
Construct: IGFRK and IRK enzyme used for the assay was intracellular kinase domain of human IGF-1R; GST
Assay: In vitro IGF-1R kinase assay (HTRF)
Conditions: ATP 20 μM, IGFRK 0.25 nM
The following compounds are shown together with reported IC50 values.

>  <Structure string>
NC(=O)c1[nH]c2ccc(Cl)cc2c1S(=O)(=O)N1CCO[C@H](COc2cccc3cccnc23)C1

>  <IC50>
> 100 nM

$$$$
>  <Structure string>
NC(=O)c1[nH]c2ccc(Cl)cc2c1S(=O)(=O)N1CCO[C@H](COc2cncc(-c3ccccc3)c2)C1

>  <IC50>
> 1000 nM

$$$$
>  <Structure string>
COc1ccccc1-c1ccccc1OC[C@@H]1CN(S(=O)(=O)c2c(C(N)=O)[nH]c3ccc(Cl)cc23)CCO1

>  <IC50>
> 1000 nM

$$$$
>  <Structure string>
Cc1cccc(-c2cccc(OC[C@@H]3CN(S(=O)(=O)c4c(C(N)=O)[nH]c5ccc(Cl)cc45)CCO3)c2)c1

>  <IC50>
> 100 nM

$$$$

###

Target: intracellular kinase domain of human IGF-1R (GST fusion protein) (Homo sapiens, UniProt P08069)
Construct: IGFRK and IRK enzyme used for the assay was intracellular kinase domain of human IGF-1R; GST
Test: In vitro IGF-1R kinase assay (HTRF)
Conditions: ATP 20 μM, IGFRK 0.25 nM
Experimental: The in vitro kinase assays using IGF-1R and IR kinase GST fusion proteins were conducted using a homogeneous time-resolved fluorescence (HTRF) format. Kinase reactions were carried out in a 384-well plate format in a final volume of 20 μL. […] Europium cryptate—labeled antiphosphotyrosine antibody PY20 (5 μL) was added (final concentration of 2 nM) and the mixture was allowed to equilibrate for 1 hour at 23° C. followed by reading the plate in an Envision plate reader. […]
The following compounds are shown together with reported IC50 values.
Endpoint name: IC50

>  <Structure string>
CN(C)c1ccc(-c2ccc(OC[C@@H]3CN(S(=O)(=O)c4c(C(N)=O)[nH]c5ccc(Cl)cc45)CCO3)cc2)cn1

>  <Measured value>
> 1000 nM

$$$$
>  <Structure string>
NC(=O)c1[nH]c2ccc(Cl)cc2c1S(=O)(=O)N1CCO[C@H](COc2ccccc2-c2ccncc2)C1

>  <Measured value>
> 1000 nM

$$$$
>  <Structure string>
COc1ccc(-c2ccc(OC[C@@H]3CN(S(=O)(=O)c4c(C(N)=O)[nH]c5ccc(Cl)cc45)CCO3)cc2C)cn1

>  <Measured value>
> 100 nM

$$$$
